For each of the compounds below, state its x fold.
# ASSAYED_TARGET: Trypanothione reductase (Trypanosoma cruzi) (UniProt P28593)
# Sequence (P28593 whole entry, looked up): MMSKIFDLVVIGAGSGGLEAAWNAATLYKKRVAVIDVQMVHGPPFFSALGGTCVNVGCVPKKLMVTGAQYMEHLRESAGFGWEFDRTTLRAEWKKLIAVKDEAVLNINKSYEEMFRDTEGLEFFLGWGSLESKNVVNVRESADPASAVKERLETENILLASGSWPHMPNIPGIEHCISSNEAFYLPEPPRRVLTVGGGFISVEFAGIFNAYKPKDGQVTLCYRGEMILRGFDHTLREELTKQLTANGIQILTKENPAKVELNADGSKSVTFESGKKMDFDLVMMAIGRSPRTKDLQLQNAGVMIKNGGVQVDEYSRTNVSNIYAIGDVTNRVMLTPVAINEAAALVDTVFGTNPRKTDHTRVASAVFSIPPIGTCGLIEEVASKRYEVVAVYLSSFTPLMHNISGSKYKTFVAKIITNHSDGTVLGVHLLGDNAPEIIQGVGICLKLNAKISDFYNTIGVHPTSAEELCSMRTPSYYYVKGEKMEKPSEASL
# TEST_PROTOCOL: Rate of NADPH oxidation by TcTR in presence of 100 uM NQ was determined in comparison to intrinsic oxidase activity

Problem: x fold lookup needed for CC1=C(NCCCN2CCN(CCCN)CC2)C(=O)c2c(O)cccc2C1=O , thanks.
Result: 6.4

Problem: Consider next the compound CC1=C(CCC(=O)N2CCN(C)CC2)C(=O)c2ccccc2C1=O in the same way.
Result: 19

Problem: // same read-out, input: CN(C)CCCN1CCN(CC2=C(N3CCN(CCCN(C)C)CC3)C(=O)c3ccccc3C2=O)CC1
Result: 3.9

Problem: Input CC1=C(NCCCNCCCN)C(=O)c2c(O)cccc2C1=O
Result: 2

Problem: Same question, CC1=C(O)c2ccccc2C(=O)/C1=N\CCCN1CCN(C)CC1 this time
Result: 2

Problem: Another compound: CC1=C(NCCCNCCC/N=C2/C(=O)c3ccccc3C(O)=C2C)C(=O)c2ccccc2C1=O
Result: 4

Problem: Now try CC1=C(CCCC(=O)NCCCN2CCN(C)CC2)C(=O)c2c(O)cccc2C1=O .
Result: 40

Problem: How about this compound: CC1=C(CCC(=O)N2CCN(C)CC2)C(=O)c2c(O)cccc2C1=O
Result: 38
